- system_tested: WIZ (Homo sapiens, UniProt O95785+Q96SW2)
- Construct: expressed in transfected cells
- Sequence (O95785 whole entry): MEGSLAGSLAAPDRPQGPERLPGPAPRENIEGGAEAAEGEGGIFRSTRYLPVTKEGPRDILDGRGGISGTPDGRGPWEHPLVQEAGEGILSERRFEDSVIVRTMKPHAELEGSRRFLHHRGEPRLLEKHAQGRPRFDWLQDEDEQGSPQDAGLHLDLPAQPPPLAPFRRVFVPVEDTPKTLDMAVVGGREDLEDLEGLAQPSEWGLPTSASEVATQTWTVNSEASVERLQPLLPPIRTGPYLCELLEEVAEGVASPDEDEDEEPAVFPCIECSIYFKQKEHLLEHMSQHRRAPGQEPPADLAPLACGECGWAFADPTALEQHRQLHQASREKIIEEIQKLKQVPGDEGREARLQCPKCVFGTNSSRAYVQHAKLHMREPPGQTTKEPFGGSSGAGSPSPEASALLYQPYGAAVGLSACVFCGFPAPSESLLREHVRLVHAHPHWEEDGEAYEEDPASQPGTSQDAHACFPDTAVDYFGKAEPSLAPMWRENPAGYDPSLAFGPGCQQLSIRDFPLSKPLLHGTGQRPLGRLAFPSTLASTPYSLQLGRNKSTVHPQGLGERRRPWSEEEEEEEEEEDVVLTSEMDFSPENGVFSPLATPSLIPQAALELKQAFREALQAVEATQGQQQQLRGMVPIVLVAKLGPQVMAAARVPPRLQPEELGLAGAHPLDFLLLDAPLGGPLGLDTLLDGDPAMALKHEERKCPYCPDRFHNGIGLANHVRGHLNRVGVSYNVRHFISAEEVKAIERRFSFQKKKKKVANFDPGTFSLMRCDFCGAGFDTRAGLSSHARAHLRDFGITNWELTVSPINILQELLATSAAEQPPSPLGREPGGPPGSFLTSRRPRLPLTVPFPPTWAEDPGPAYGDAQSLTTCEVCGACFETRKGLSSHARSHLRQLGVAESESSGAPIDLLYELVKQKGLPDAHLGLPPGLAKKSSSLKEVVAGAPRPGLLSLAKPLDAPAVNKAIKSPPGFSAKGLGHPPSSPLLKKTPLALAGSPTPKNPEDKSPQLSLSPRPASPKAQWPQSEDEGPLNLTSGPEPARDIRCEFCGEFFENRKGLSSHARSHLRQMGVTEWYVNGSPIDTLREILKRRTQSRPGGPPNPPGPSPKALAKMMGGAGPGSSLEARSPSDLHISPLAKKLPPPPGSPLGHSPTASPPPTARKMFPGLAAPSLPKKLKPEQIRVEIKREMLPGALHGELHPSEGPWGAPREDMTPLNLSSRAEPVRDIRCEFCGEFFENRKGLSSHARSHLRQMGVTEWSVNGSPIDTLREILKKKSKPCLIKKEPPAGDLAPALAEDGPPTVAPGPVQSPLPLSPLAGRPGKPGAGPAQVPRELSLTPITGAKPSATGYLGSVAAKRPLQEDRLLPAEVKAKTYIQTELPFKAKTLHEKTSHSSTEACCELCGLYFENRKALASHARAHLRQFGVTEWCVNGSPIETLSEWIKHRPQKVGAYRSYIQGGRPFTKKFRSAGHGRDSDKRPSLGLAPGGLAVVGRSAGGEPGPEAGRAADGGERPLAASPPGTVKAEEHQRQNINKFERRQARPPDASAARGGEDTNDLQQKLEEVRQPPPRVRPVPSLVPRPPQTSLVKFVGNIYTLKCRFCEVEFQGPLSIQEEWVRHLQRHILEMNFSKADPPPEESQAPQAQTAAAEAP
- Sequence (Q96SW2 whole entry): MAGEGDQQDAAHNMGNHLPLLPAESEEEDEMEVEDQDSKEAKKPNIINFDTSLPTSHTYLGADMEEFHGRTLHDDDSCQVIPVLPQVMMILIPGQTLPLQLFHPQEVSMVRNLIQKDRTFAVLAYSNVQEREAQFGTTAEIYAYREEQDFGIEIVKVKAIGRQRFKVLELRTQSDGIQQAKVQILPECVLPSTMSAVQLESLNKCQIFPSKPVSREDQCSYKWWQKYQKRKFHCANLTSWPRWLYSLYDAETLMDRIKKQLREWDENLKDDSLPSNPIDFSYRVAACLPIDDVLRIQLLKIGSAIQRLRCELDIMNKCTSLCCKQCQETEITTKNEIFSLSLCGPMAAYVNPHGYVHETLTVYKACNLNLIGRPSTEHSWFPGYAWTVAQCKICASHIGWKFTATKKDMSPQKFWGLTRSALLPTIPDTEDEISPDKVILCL
- Sequence (Q16531 whole entry partner): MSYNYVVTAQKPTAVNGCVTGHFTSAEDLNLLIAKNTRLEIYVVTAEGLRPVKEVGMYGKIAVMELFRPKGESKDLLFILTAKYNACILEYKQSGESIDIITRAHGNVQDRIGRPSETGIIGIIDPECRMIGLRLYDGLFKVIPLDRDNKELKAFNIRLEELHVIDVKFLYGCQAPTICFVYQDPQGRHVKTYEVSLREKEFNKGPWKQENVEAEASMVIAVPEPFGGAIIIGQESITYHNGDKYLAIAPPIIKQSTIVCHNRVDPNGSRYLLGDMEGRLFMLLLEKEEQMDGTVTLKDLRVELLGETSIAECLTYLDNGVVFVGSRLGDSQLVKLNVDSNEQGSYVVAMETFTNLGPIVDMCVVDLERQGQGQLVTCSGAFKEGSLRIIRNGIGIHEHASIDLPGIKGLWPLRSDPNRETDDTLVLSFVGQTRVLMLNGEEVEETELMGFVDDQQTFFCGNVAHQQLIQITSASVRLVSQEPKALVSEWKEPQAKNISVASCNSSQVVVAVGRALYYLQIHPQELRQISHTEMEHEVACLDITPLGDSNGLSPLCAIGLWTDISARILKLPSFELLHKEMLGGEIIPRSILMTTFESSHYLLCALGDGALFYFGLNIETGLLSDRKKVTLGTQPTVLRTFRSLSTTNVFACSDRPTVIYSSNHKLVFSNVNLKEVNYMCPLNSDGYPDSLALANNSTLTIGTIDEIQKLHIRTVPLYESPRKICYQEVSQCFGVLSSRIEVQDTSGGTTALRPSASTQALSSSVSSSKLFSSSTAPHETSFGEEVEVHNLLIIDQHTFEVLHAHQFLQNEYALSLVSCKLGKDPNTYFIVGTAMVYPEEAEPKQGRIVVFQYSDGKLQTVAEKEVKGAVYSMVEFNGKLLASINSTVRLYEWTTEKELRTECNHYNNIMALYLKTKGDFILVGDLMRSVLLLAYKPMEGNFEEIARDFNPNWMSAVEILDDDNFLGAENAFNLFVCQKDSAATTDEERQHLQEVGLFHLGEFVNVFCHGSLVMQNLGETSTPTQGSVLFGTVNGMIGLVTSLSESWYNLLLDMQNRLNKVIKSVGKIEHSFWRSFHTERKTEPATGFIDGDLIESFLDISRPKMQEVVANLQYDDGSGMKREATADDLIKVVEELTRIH
- experiment_description: Quantification of WIZ protein levels in HiBit tag fusion protein assay (293T cells)
- Assay type: cell-based
- assay_context: HEK-293T; DMSO-normalized, curve-fitted percentage of WIZ-HiBit remaining at 25 uM; read-out: WIZ Amax
assay_endpoint: remaining activity at 25 µM (%)

CCN1C[C@H](C)C[C@@H](Oc2ccc3c(c2)CN(C2CCC(=O)NC2=O)C3=O)C1 (single isomer, unassigned) [Example 76-1] ... 13.8

I. CC[C@H](C)N1CCC[C@@H](Oc2ccc3c(c2)CN(C2CCC(=O)NC2=O)C3=O)C1 (stereo partly drawn) [Example 33]
II. O=C1CCC(N2Cc3cc(O[C@@H]4CCCN(C5CC6(CCOCC6)C5)C4)ccc3C2=O)C(=O)N1 (stereo partly drawn) [Example 28]
III. C[C@@H]1C[C@@H](Oc2ccc3c(c2)CN(C2CCC(=O)NC2=O)C3=O)CN(S(C)(=O)=O)C1 (stereo partly drawn) [Example 80]
IV. CC[C@H](C)N1CCC(C)(C)C(Oc2ccc3c(c2)CN(C2CCC(=O)NC2=O)C3=O)C1 (single isomer, unassigned) [Example 50]
Put the entries in order of remaining activity at 25 µM, starting with the largest number. Use the labels to give the requested order.
IV, II, III, I

A. O=C1CCC(N2Cc3cc(O[C@@H]4CCCN(CC5COC5)C4)ccc3C2=O)C(=O)N1 (stereo partly drawn) [Example 4]
B. CC(C)CN1C[C@H](C)C[C@@H](Oc2ccc3c(c2)CN(C2CCC(=O)NC2=O)C3=O)C1 (stereo partly drawn) [Example 79]
Form: Entry with minimum remaining activity at 25 µM (choose one): A / B Return value: the label identifying the chosen record.
B
(B: 17.3%, A: 64.4%)

P. CO[C@H]1CC[C@H](CN2CCC[C@@H](Oc3ccc4c(c3)CN(C3CCC(=O)NC3=O)C4=O)C2)CC1 (stereo partly drawn) [Example 30]
Q. CCO[C@@H]1C[C@@H](Oc2ccc3c(c2)CN(C2CCC(=O)NC2=O)C3=O)CN(C(C)C)C1 (stereo partly drawn) [Example 74]
R. CCO[C@@H]1C[C@@H](Oc2ccc3c(c2)CN(C2CCC(=O)NC2=O)C3=O)CN(CC(C)C)C1 (stereo partly drawn) [Example 72]
Provide the items ranked by increasing remaining activity at 25 µM. # output: labels, in the requested order
Q, R, P

A. CC(=O)N1C[C@H](Oc2ccc3c(c2)CN(C2CCC(=O)NC2=O)C3=O)CC[C@@H]1C (stereo partly drawn) [Example 86]
B. CC(C)CN1CCC[C@@H](Oc2ccc3c(c2)CN(C2CCC(=O)NC2=O)C3=O)C1 (stereo partly drawn) [Example 3]
C. O=C1CCC(N2Cc3cc(O[C@@H]4CCCN(CC#CC5CC5)C4)ccc3C2=O)C(=O)N1 (stereo partly drawn) [Example 25]
D. CC(C)N1C[C@H](O)C[C@@H](Oc2ccc3c(c2)CN(C2CCC(=O)NC2=O)C3=O)C1 (stereo partly drawn) [Example 67]
Sort (4 molecules) by remaining activity at 25 µM: min first. # output: labels, in the requested order
D, B, C, A

1. O=C1CCC(N2Cc3cc(O[C@@H]4CCCN(C5CC6(COC6)C5)C4)ccc3C2=O)C(=O)N1 (stereo partly drawn) [Example 11]
2. CCOC(=O)N1C[C@H](Oc2ccc3c(c2)CN(C2CCC(=O)NC2=O)C3=O)CC[C@@H]1C (stereo partly drawn) [Example 83]
API: POST /compare with 1 and 2 ; response names the item with higher remaining activity at 25 µM. Answer = label.
2

A. CCN1C[C@H]2C[C@H]2[C@@H](Oc2ccc3c(c2)CN(C2CCC(=O)NC2=O)C3=O)C1 (single isomer, unassigned) [Example 22]
B. CC[C@H](C)N1CCC2(CC2)[C@@H](Oc2ccc3c(c2)CN(C2CCC(=O)NC2=O)C3=O)C1 (stereo partly drawn) [Example 17]
Determine, for A and B , which has the greater value of remaining activity at 25 µM. Which one? Tell me its label.
A
(A: 75.7%, B: 27.8%)

a. CO[C@H]1C[C@H](CN2CCC[C@@H](Oc3ccc4c(c3)CN(C3CCC(=O)NC3=O)C4=O)C2)C1 (stereo partly drawn) [Example 27]
b. O=C1CCC(N2Cc3cc(O[C@@H]4CCCN(CC5CCCCC5)C4)ccc3C2=O)C(=O)N1 (stereo partly drawn) [Example 6]
Between item a and item b , which reported remaining activity at 25 µM is smaller? # answer = label of selected item
a
(a: 60.3%, b: 86.7%)

P. C[C@H]1CC[C@@H](Oc2ccc3c(c2)CN(C2CCC(=O)NC2=O)C3=O)CN1S(C)(=O)=O (stereo partly drawn) [Example 85]
Q. O=C1CCC(N2Cc3cc(O[C@@H]4CCCN(CC5CC5)C4)ccc3C2=O)C(=O)N1 (stereo partly drawn) [Example 13]
R. CCO[C@@H]1C[C@@H](Oc2ccc3c(c2)CN(C2CCC(=O)NC2=O)C3=O)CN(C(=O)NC)C1 (stereo partly drawn) [Example 68]
# rank by remaining activity at 25 µM, ascending (min first) Ranked list of labels, please, in the requested order.
Q, P, R
(Q: 27.6%, P: 65.7%, R: 105%)

----------
- system_tested: SALL4 (Homo sapiens, UniProt Q96SW2+Q9UJQ4)
- Construct: expressed in transfected cells; host or cells: GripTite 293 MSR cells (293GT), ThermoFisher Scientific, stably transfected by electroporation, blasticidin-selected clones
- Sequence (Q9UJQ4 whole entry): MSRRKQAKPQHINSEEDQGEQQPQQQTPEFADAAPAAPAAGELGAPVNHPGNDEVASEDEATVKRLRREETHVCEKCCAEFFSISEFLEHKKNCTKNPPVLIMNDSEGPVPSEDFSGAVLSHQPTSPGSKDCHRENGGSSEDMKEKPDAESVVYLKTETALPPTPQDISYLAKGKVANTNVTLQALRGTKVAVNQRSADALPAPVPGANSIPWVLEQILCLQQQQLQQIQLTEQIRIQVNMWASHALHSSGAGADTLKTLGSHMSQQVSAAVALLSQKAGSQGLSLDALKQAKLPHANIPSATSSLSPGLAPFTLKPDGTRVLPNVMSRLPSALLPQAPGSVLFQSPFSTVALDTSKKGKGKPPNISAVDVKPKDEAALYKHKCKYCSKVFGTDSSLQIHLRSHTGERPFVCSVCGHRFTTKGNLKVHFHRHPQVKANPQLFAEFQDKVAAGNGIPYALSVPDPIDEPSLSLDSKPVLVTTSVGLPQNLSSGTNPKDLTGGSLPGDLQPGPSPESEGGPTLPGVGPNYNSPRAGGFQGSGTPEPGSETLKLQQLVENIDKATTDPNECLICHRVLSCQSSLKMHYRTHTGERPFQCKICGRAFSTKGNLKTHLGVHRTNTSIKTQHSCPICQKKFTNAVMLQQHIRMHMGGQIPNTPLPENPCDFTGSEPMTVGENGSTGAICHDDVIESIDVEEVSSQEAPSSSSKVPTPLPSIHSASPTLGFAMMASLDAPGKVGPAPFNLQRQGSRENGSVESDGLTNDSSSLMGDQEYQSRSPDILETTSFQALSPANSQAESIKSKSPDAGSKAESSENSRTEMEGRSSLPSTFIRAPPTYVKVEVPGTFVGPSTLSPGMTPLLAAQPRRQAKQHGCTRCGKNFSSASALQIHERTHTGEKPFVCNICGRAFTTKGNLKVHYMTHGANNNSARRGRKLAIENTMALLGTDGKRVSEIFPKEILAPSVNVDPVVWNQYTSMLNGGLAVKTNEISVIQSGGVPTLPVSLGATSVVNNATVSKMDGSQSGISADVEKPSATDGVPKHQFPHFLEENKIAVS
- Sequence (Q96SW2 whole entry): as the sequence (Q96SW2 whole entry) above
- Sequence (Q16531 whole entry partner): as the sequence (Q16531 whole entry partner) above
- experiment_description: Quantification of SALL4 protein levels in HiBiT tag fusion protein assay
- Assay type: cell-based
- assay_context: arithmatic mean over number of repeats; 18 hours, top 50 μM; read-out: SALL4 AC50
assay_endpoint: DC50 (nM)

CCN1CCC[C@@H](Oc2ccc3c(c2)CN(C2CCC(=O)NC2=O)C3=O)C1 (mixture of isomers) [Example 1] ... 49
O=C1CCC(N2Cc3cc(O[C@@H]4CCCN(CC5CC5)C4)ccc3C2=O)C(=O)N1 (stereo partly shown) [Example 13] ... 140
O=C1CCC(N2Cc3cc(OC[C@H]4CCCCN4CC4CC4)ccc3C2=O)C(=O)N1 (stereo partly shown) [Comparative Example 3, reference compound] ... 130
CCN1CCCC[C@@H]1COc1ccc2c(c1)CN(C1CCC(=O)NC1=O)C2=O (mixture of isomers) [Comparative Example 1, reference compound] ... 160

----------
- system_tested: WIZ (Homo sapiens, UniProt O95785+Q96SW2)
- Construct: expressed in transfected cells
- experiment_description: Quantification of WIZ protein levels in HiBit tag fusion protein assay (293T cells)
- Format: cell-based
- Parameters: dose or concentration left out as unconfirmed
- assay_context: HEK-293T, read-out: % degradation of WIZ (100 − Amax)
assay_endpoint: Dmax (%)
Your answer should be a plain number; it is taken to be in %.

CCN1CCC[C@@H](Oc2ccc3c(c2)CN(C2CCC(=O)NC2=O)C3=O)C1 (mixture of isomers) ... 76
CCN1C[C@@H](C)C[C@@H](Oc2ccc3c(c2)CN(C2CCC(=O)NC2=O)C3=O)C1 (mixture of isomers) ... 43.7
CCN1CCC[C@@H](Oc2ccc3c(c2)CN(C2CCC(=O)NC2=O)C3=O)[C@H]1C (mixture of isomers) ... 15.8
CCN1CC[C@H](C)[C@@H](Oc2ccc3c(c2)CN(C2CCC(=O)NC2=O)C3=O)C1 (mixture of isomers) ... 31.9
C[C@@H]1C[C@@H](Oc2ccc3c(c2)CN(C2CCC(=O)NC2=O)C3=O)CN(C2CCC2)C1 (stereo partly shown) ... 85.7

Fill in: Dmax of CCN1C[C@H](F)C[C@@H](Oc2ccc3c(c2)CN(C2CCC(=O)NC2=O)C3=O)C1 (stereo partly shown) is ___
37

// Dmax lookup, key: CCC[C@H]1CC[C@@H](Oc2ccc3c(c2)CN(C2CCC(=O)NC2=O)C3=O)CN1 (stereo partly shown)
71.4

What value of Dmax has been recorded for this entry: CCN1CCC[C@H](Oc2ccc3c(c2)CN(C2CCC(=O)NC2=O)C3=O)C1 (stereo partly shown)
11.1

I would be grateful if you could share the reported Dmax for CCN1C[C@H](C)C[C@@H](Oc2ccc3c(c2)CN(C2CCC(=O)NC2=O)C3=O)C1 (mixture of isomers) [Example 52] .
76.2

Look up Dmax: CCN1CC[C@H](F)[C@H](Oc2ccc3c(c2)CN(C2CCC(=O)NC2=O)C3=O)C1 (relative stereo)
60.7

Record request: Dmax value, item C[C@@H]1C[C@@H](Oc2ccc3c(c2)CN(C2CCC(=O)NC2=O)C3=O)CN(C)C1 (stereo partly shown)
83.5

What Dmax value was documented for this molecule, CCN1C[C@H](O)C[C@@H](Oc2ccc3c(c2)CN(C2CCC(=O)NC2=O)C3=O)C1 (mixture of isomers) ?
80

Sample CCN1CC2CC(Oc3ccc4c(c3)CN(C3CCC(=O)NC3=O)C4=O)C1C2 (racemic) — what was its Dmax?
27.1

Param item = C[C@H]1CC[C@@H](Oc2ccc3c(c2)CN(C2CCC(=O)NC2=O)C3=O)CN1C1CCC1 (stereo partly shown) ; retrieve measured Dmax.
85

Quick one: Dmax of CCN1C[C@H](Oc2ccc3c(c2)CN(C2CCC(=O)NC2=O)C3=O)CC[C@H]1C (stereo partly shown) ?
57.7

# get_value(readout='Dmax', item= CCN1CC[C@@H](F)[C@H](Oc2ccc3c(c2)CN(C2CCC(=O)NC2=O)C3=O)C1 (relative stereo) )
16.2
